Molecular target: T1, T cell receptor (TCR) Vγ9 (TRGV9) (human, UniProt Q99603 21-122); note: test concentration or dose not given here
T1 chain (looked up): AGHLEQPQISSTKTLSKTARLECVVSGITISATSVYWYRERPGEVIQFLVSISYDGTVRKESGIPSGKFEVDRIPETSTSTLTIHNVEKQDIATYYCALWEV
Assay: cell-based or functional assay
VALUE_KIND: CD71+ (Vg9+ cells), flow staining (%)
Answers are plain numbers, in %.

[
  {
    "BINDER": "VG9B430 (antibody, human IgG1, kappa, V domains shown) VH: EVQLLESGGGLVKPGGSLRLSCSASGFTFSSYDMNWVRQAPGKGLEWVSSISSSSSYIYYADSVKGRFTISRDNAKNSLYLQMNSLRAEDTAVYHCARDVGVTTDYYYYGMDVWGQGTMVTVSS VL: EIVLTQSPGTLSLSPGDRATLSCRASQSVASSYLAWYQQKPGQSPRLLIYGASSRATGIPDRFSGSGSGTDFTLTISRLEPEDFAVYYCQQYGSSPPYTFGQGTKLEIKR",
    "RESULT_UNIT": "%",
    "DATA_VALUE": 96.2
  },
  {
    "BINDER": "VG9B104 (antibody, human IgG1, kappa, V domains shown) VH: EVQLVESGGGLVKPGGSLRLSCAASGFTFSVYSMNWVRQAPGKGLEWVSSIGSSSSYIFYADSVKGRFTISRDNAKNSLYLQMNSLRAEDTAVYYCGRDHDYGGLDYWGQGTLVTVSS VL: EIVLTQSPGTLSLSPGERATLSCRASQSVSSSYLAWYQQKPGQAPRLLIYGPSNRATDIPDRFSGTGSGTDFTLTISRLEPEDFAVYYCQQYGRSPLTFGGGTKVEIKR",
    "RESULT_UNIT": "%",
    "DATA_VALUE": 95.2
  },
  {
    "BINDER": "VG9B463 (antibody, human IgG1, lambda, V domains shown) VH: EVQLVESGGGLVKPGGSLRLSCSASGFTFSNYDMNWVRQAPGKGLEWVSSISSSSSYIYYADSVKGRFTISRDNAKNSLYLQMNSLRAEDTAVYHCARDVGVTTDYYYYGMDVWGQGTTVTVSS VL: QPVLTQSSSASGTPGQRVTISCSGSSSNIGSNTVNWYQQFPGTAPKLLIYTNTQRPSGVPDRFSGSKSGTLVSLAISGLQSEDEADYYCAAWDDSLNAWVFGGGTKLTVLG",
    "RESULT_UNIT": "%",
    "DATA_VALUE": 87.4
  }
]

Below are some binders; for each one, tell me its CD71+ (Vg9+ cells), flow staining.
1. VG9B469 (antibody, human IgG1, kappa, V domains shown) VH: EVQLVESGGGLVKPGGSLRLSCAASGFTFSHYDMNWVRQAPGKGLEWVSSISSSSSYIFYADSVKGRFTISRDNAKNSLLLQMNSLRAEDTAVYHCARDRGVGDTSDYYSFGLDVWGQGTMVTVSS VL: DIVMTQSPGTLSLSPGERATLSCRASQNVSSTYLAWYQQKPGQAPRLLIYGACSRATGIPDRFSGSGSGTDFTLTISRLEPEDYAVYYCQQYGSSPPYTFGRGTKLEIKR
2. VG9B198 (antibody, human IgG1, lambda, V domains shown) VH: QVQLQESGPGLVKPSETLSLTCTVSGDSISSIYWSWIRQSAGKGLEWIGRIYTTDITNYNPSLKSRVTMSADTSKNQLSLKLTSVTAADTAVYYCAKNGYSYGGFNYWGQGTLVTVSS VL: QSVLTQPPSVSGAPGQRVTISCTGSSSNIGAGYDVHWYQRLPGTAPKLLIYGDSYRPSGVPDRFSGSKSGTSASLAITGLQAEDEADYYCQSYDSSLSVVVFGGGTKLTVLG

[98.5, 91.2]
